Tgt: EGR1 (Homo sapiens, UniProt P18146 P18146:1-543)
Sequence (P18146 whole entry, one chain of several): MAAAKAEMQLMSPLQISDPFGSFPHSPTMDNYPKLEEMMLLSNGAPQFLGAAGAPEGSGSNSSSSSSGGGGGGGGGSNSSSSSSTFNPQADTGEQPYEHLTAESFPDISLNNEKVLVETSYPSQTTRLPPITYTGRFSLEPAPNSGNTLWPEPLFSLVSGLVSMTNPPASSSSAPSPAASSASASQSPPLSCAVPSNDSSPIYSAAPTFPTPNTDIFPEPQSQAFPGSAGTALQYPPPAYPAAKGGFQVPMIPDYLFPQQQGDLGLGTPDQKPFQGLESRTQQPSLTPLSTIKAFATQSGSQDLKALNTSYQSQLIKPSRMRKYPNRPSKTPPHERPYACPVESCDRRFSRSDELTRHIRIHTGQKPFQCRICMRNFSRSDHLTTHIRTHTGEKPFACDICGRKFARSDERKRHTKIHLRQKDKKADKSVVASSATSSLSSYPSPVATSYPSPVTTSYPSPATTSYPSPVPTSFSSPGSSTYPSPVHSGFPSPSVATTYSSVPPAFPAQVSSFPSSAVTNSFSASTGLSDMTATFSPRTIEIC
Method Notes: competition; ELISA; self-competition vs 128 nM biotinylated SEQ 40 probe, 10 ug nuclear extract
Protocol Conditions: protein: extract; tags: endogenous in nuclear extract of TPA-stimulated K-562 cells (Activemotif); label: biotin (probe)
Endpoint: pIC50
Please express pIC50 as -log10 of the molar concentration.

// field: pIC50; key: SEQ ID NO 40 double EGR1 site decoy (dsDNA) DNA 1: GTTATGCGTGGGCGTAGATGCGGGGGCGTTATAG DNA 2: CTATAACGCCCCCGCATCTACGCCCACGCATAAC ; value = 6.67
